- Test system: human recombinant sGC enzyme (Homo sapiens (Human), UniProt Q02108+Q02153)
- Protocol text: Size Exclusion Chromatography (SEC) competition binding assay using [3H] Ex-77B as the radioligand
- Settings: [3H] Ex-77B radioligand, 24 hours at 37° C.
Catalogue of Ki values
Measured attribute: Ki

Molecule	Test system	Measured attribute	Observed measurement
CC1CCC(Cn2nc(-c3nc(N)c4c(n3)NC(=O)[C@@]4(C)c3ccc(CCC(=O)O)cc3)c3ccc(Cl)cc32)CC1 (single isomer, unassigned) [Example 5BB]	human recombinant sGC enzyme (Homo sapiens (Human), UniProt Q02108+Q02153)	Ki	0.182 nM
C[C@@]1(c2ccc(CCc3nn[nH]n3)cc2)C(=O)Nc2nc(-c3nn(Cc4ccccc4F)c4cc(Cl)ccc34)nc(N)c21 [Example 112B]	human recombinant sGC enzyme (Homo sapiens (Human), UniProt Q02108+Q02153)	Ki	0.066 nM
C[C@@]1(c2ccc(CCC(=O)O)cc2)C(=O)Nc2nc(-c3nn(Cc4c(F)cccc4F)c4cc(Cl)ccc34)nc(N)c21 (single isomer, unassigned) [Example 64B]	human recombinant sGC enzyme (Homo sapiens (Human), UniProt Q02108+Q02153)	Ki	0.075 nM
